The values you see were collected from patent EP1203770A1.

target: HIV-1 protease (Human immunodeficiency virus type 1 group M subtype B); construct: The protease (or proteinase), consisting of only 99 amino acids, is among the smallest enzymes known; test: In vitro HIV protease inhibitory assay (HIV Protease FITC Assay); format: biochemical; settings: read-out: HIV-1 FITC Ki
METRIC NAME: log10 Ki (log10 of the value in nM)
Please note: log10 values; quantity Ki; unit nM.

Go through the list and state log10 Ki for each entry.
1. CCC(Cc1ccccc1)c1cc(O)c(C(c2cccc(NC(=O)[C@H](Cc3cn(S(=O)(=O)c4ccc(C)cc4)cn3)NC(=O)OC(C)(C)C)c2)C2CC2)c(=O)o1 (some centres unmarked)
2. CCC(Cc1ccccc1)c1oc(=O)c(C(CC)c2ccccc2)c(O)c1Br (centres unmarked)

1.27
2.41

Hi team, please reply with log10 Ki for each item in this list.
1. CCC(Cc1ccccc1)c1cc(O)c(C(c2cccc(NS(=O)(=O)c3ccc(C#N)cc3)c2)C2CC2)c(=O)o1 (centres unmarked)
2. CCC(Cc1ccccc1)c1cc(O)c(C(c2cccc(NC(=O)[C@H](C)NC(=O)OC(C)(C)C)c2)C2CC2)c(=O)o1 (some centres unmarked)
3. CCCC1(CCc2ccccc2)CC(O)=C(C(c2ccc(COCOC)s2)C2CC2)C(=O)O1 (centres unmarked)
4. CCC(CC1OCCO1)c1cc(O)c(C(c2ccccc2)C2CC2)c(=O)o1 (centres unmarked)
5. CCC(Cc1ccccc1)c1cc(O)c(C(c2cccc(NS(=O)(=O)CC)c2)C2CC2)c(=O)o1 (centres unmarked)
6. CCC(Cc1ccc(F)cc1)c1cc(O)c(C(c2ccccc2)C2CC2)c(=O)o1 (centres unmarked)
7. CC(C)(C)OC(=O)CCc1cc(O)c(C(c2ccccc2)C2CC2)c(=O)o1 (centres unmarked)
8. C=CC(c1ccccc1)C1C(=O)CC(C)(c2ccccc2)OC1=O (centres unmarked)

[0.76, 1.16, 1.47, 1.66, 1.48, 1.59, 2.72, 2.80]

Could you tell me log10 Ki for each of these molecules? They are listed below.
1. C=CC(C1=C(O)CC(CCc2ccccc2)(CC(C)C)OC1=O)c1ccccc1 (centres unmarked)
2. CCC(c1ccccc1)c1c(O)c(Br)c(CCc2ccccc2)oc1=O (centres unmarked)
3. CCC(Cc1ccccn1)c1cc(O)c(C(c2ccccc2)C2CC2)c(=O)o1 (centres unmarked)
4. CCC(Cc1csc(-c2ccc(Cl)cc2)n1)c1cc(O)c(C(c2ccccc2)C2CC2)c(=O)o1 (centres unmarked)
5. CCCS(=O)(=O)Nc1cccc(C(c2c(O)cc(C(CC)Cc3ccccc3)oc2=O)C2CC2)c1 (centres unmarked)
6. CCC(Cc1c(C)noc1C)c1cc(O)c(C(c2ccccc2)C2CC2)c(=O)o1 (centres unmarked)

1: 1.39; 2: 2.66; 3: 1.90; 4: 2.76; 5: 1.60; 6: 1.86

----------
biological target: HIV-1 protease (Human immunodeficiency virus type 1 group M subtype B); construct: The protease (or proteinase), consisting of only 99 amino acids, is among the smallest enzymes known; experiment: In vitro HIV protease inhibitory assay (HIV Protease FITC Assay); assay type: biochemical; settings: read-out: HIV-1 FITC Ki
I'd appreciate it if you could supply Ki values for the items below.
Answers are plain numbers, in nM.

COMPOUND: CC(C)CC1(CCc2ccccc2)CC(O)=C(C(CCc2ccccc2)c2ccccc2)C(=O)O1 (stereo not drawn) [Example 211]
READOUT UNIT: nM
VALUE REPORTED: 64

Could you now consider this next compound?
Need Ki, item CC(C)Cc1cc(O)c(C(c2ccccc2)C2CC2)c(=O)o1 (stereo not drawn) [Example 75] 127

----------
target: HIV-1 protease (Human immunodeficiency virus type 1 group M subtype B); construct: The protease (or proteinase), consisting of only 99 amino acids, is among the smallest enzymes known; test: In vitro HIV protease inhibitory assay (HIV Protease FITC Assay); format: biochemical; settings: HIV-1 Dose 0.370 uM; read-out: HIV-1 Protease % Inhib
Task for the reader: assign each of the following molecules its reported inhibition at 0.37 µM.

Please review the following examples before continuing.
MOLECULE: CCC(Cc1cccc(C(F)(F)F)c1)c1cc(O)c(C(c2ccccc2)C2CC2)c(=O)o1 (stereo not drawn)
inhibition at 0.37 µM: < 10%
//
MOLECULE: O=c1oc(CC2CCOCC2)cc(O)c1C(c1ccccc1)C1CC1 (stereo not drawn)
inhibition at 0.37 µM: < 10%

Now, please, on to the next molecule.
Entry CCC(C1=C(O)CC2(CCCC2)OC1=O)c1ccccc1 (stereo not drawn) has what inhibition at 0.37 µM? < 10%

----------
target: HIV-1 protease (Human immunodeficiency virus type 1 group M subtype B); construct: The protease (or proteinase), consisting of only 99 amino acids, is among the smallest enzymes known; assay: In vitro HIV protease inhibitory assay (HIV Protease FITC Assay); type: biochemical; details: HIV-1 Dose 0.123 uM; read-out: HIV-1 Protease % Inhib
METRIC NAME: inhibition at 0.123 µM

Known results for compounds:
COMPOUND: CCC(CCCl)c1cc(O)c(C(c2ccccc2)C2CC2)c(=O)o1 (stereo not drawn) [Example 66]
inhibition at 0.123 µM: < 10%

COMPOUND: CCC(Cc1ccccc1)c1cc(O)c(C(c2cccc(NS(=O)(=O)c3ccc(C#N)cc3)c2)C2CC2)c(=O)o1 (stereo not drawn) [Example 184]
inhibition at 0.123 µM: 65%

Would you mind telling me what inhibition at 0.123 µM value was observed for O=c1oc(CCc2ccc(F)cc2)cc(O)c1C(c1ccccc1)C1CC1 (stereo not drawn) [Example 165] ? < 10%

----------
target: HIV-1 protease (Human immunodeficiency virus type 1 group M subtype B); construct: The protease (or proteinase), consisting of only 99 amino acids, is among the smallest enzymes known; experiment: In vitro HIV protease inhibitory assay (HIV Protease FITC Assay); format: biochemical; settings: HIV-1 Dose 10.000 uM; read-out: HIV-1 Protease % Inhib
Please go through the items and note down their inhibition at 10 µM.
Answers are plain numbers, in %.

Below: 5 molecules and their reported inhibition at 10 µM.
MOLECULE: CCC(CC(=O)OCc1ccccc1)c1cc(O)c(C(c2ccccc2)C2CC2)c(=O)o1 (stereo not shown)
TESTED ON: HIV-1 protease (Human immunodeficiency virus type 1 group M subtype B)
inhibition at 10 µM, %: 87.6
//
MOLECULE: CCCC1(CCCc2ccccc2)CC(O)=C(C(c2ccccc2)c2ccccc2)C(=O)O1 (stereo not shown)
TESTED ON: HIV-1 protease (Human immunodeficiency virus type 1 group M subtype B)
inhibition at 10 µM, %: 90.2
//
MOLECULE: CCC(Cc1ccc2ccccc2c1)c1cc(O)c(C(CC)c2ccccc2)c(=O)o1 (stereo not shown)
TESTED ON: HIV-1 protease (Human immunodeficiency virus type 1 group M subtype B)
inhibition at 10 µM, %: 49.5
//
MOLECULE: CCCC1(c2ccccc2)CC(=O)C(C(CC)c2cccc(O)c2)C(=O)O1 (stereo not shown)
TESTED ON: HIV-1 protease (Human immunodeficiency virus type 1 group M subtype B)
inhibition at 10 µM, %: 79.8
//
MOLECULE: O=c1oc(CCc2nnnn2C2CCCCC2)cc(O)c1C(c1ccccc1)C1CC1 (stereo not shown)
TESTED ON: HIV-1 protease (Human immunodeficiency virus type 1 group M subtype B)
inhibition at 10 µM, %: 20.7

Could you tell me inhibition at 10 µM for each of these molecules? They are listed below.
1. CCC(CCCl)c1cc(O)c(C(c2ccccc2)C2CC2)c(=O)o1 (stereo not shown)
2. C=CC(C1=C(O)CC2(CCCCCC2)OC1=O)c1ccccc1 (stereo not shown)

1. 102
2. 98.9

Quick one: give me inhibition at 10 µM for each item below, same order please.
1. CCC(CC1CC(=O)N(Cc2ccccc2)C1)c1cc(O)c(C(c2ccccc2)C2CC2)c(=O)o1 (stereo not shown)
2. CCC(Cc1ccccc1)c1cc(O)c(C(CC)c2ccccc2)c(=O)o1 (stereo not shown)
3. CCC(Cc1cccc2ccccc12)c1cc(O)c(C(CC)c2ccccc2)c(=O)o1 (stereo not shown)
4. CCCC1(CCCc2ccccc2)CC(O)=C(C(CCc2ccccc2)c2ccccc2)C(=O)O1 (stereo not shown)
5. CCC(CCCCl)c1cc(O)c(C(c2ccccc2)C2CC2)c(=O)o1 (stereo not shown)
6. CCC(Cc1ccccc1)c1cc(O)c(C(c2cccc(NC(=O)Cc3ccccn3)c2)C2CC2)c(=O)o1 (stereo not shown)

88.7
92
79.3
91
109
113

Provide inhibition at 10 µM values for the following items, in order.
1. CCCC(CCC)c1cc(O)c(C(CC)c2ccccc2)c(=O)o1 (stereo not shown)
2. CCC(CC)c1cc(O)c(C(CC)c2ccccc2)c(=O)o1 (stereo not shown)
3. CCC(CCCN1CCOCC1)c1cc(O)c(C(c2ccccc2)C2CC2)c(=O)o1 (stereo not shown)

[79.5, 90.2, 28.9]

----------
biological target: HIV-1 protease (Human immunodeficiency virus type 1 group M subtype B, UniProt P04585); construct: The protease (or proteinase), consisting of only 99 amino acids, is among the smallest enzymes known; experiment: In vitro HIV protease inhibitory assay (HIV Protease FITC Assay); assay type: biochemical; conditions: HIV-1 Dose 3.300 uM; read-out: HIV-1 Protease % Inhib
Output 1 for inhibition at 3.3 µM not less than 90%; output -1 otherwise.

COMPOUND: CCC(CC(=O)OCc1ccccc1)c1cc(O)c(C(c2ccccc2)C2CC2)c(=O)o1 (stereo not drawn)
CLASS ASSIGNMENT: -1
//
COMPOUND: CCCC1(CCc2ccccc2)CC(O)=C(C(c2ccc(COCOC)s2)C2CC2)C(=O)O1 (stereo not drawn)
CLASS ASSIGNMENT: 1
//
COMPOUND: CCC(CC1CCN(S(=O)(=O)c2ccc(C)cc2)CC1)c1cc(O)c(C(c2ccccc2)C2CC2)c(=O)o1 (stereo not drawn)
CLASS ASSIGNMENT: -1
//
COMPOUND: CCCC1(CCCc2ccccc2)CC(O)=C(C(c2ccc(COCOC)s2)C2CC2)C(=O)O1 (stereo not drawn)
CLASS ASSIGNMENT: -1
//
COMPOUND: CCC(Cc1ccc(F)cc1)c1cc(O)c(C(c2ccccc2)C2CC2)c(=O)o1 (stereo not drawn)
CLASS ASSIGNMENT: -1

Determine whether this compound has inhibition at 3.3 µM no lower than 90%: CCC(CCCN1CCOCC1)c1cc(O)c(C(c2ccccc2)C2CC2)c(=O)o1 (stereo not drawn) -1

Consider next the compound O=C1OC(Cc2ccccc2)(c2ccccc2)CC(O)=C1C(/C=C/c1ccccc1)c1ccccc1 (stereo not drawn) in the same way. -1

Also need CCC(Cc1ccccc1)c1cc(O)c(C(c2cccc(NS(=O)(=O)CC)c2)C2CC2)c(=O)o1 (stereo not drawn) , thanks. -1
